test: Human HepG2 cell viability assay in 384 well format; type: toxicity, cell-based; set-up: dose 125 nL, time 70.5 hour; concentration not given beside the values; settings: HepG2 cells, read-out: Inhibition
Assignment: determine reported cytotoxicity at 70.5 h for the given compounds.
API: value field is a number in %; no unit string.

Given the compound "CN(C)c1nc2c(c(=O)[nH]1)CCN(C(=O)c1c[nH]c(=O)c(Cl)c1)C2" , what is its reported cytotoxicity at 70.5 h?
-0.451

Another compound: "Cc1cccc(C(=O)N2C[C@@H]3COC[C@@H](CC(=O)N4CCCC4)[C@@H]3C2)n1"
4.3

Another compound: "O=S(=O)(CC1CCOCC1)NCc1ncc(-c2ccccc2)o1"
-5.19

Another compound: "O=C1CN(Cc2nnc(-c3ccc(Br)o3)o2)CCN1"
-7.06

Another compound: CCC(C)(C)NC(=O)CN(C)C(c1cccc(F)c1)c1ccccn1 (stereo not given)
0.639

---

test: Human HepG2 cell viability assay in 384 well format; type: toxicity, cell-based; parameters: dose 125 nL, time 70.5 hour; concentration not given beside the values; settings: HepG2 cells, read-out: Inhibition
Assignment: determine reported cytotoxicity at 70.5 h for the given compounds.
API: value field is a number in %; no unit string.

Given the compound "N#Cc1ccccc1N1CCCN(C(=O)CCn2cccn2)CC1" , what is its reported cytotoxicity at 70.5 h?
-23

Another compound: Cc1ccc(N2CCOC(C)(C(=O)N(C)C)C2)nn1 (stereo unspecified)
-6.16

Another compound: COc1cccc(COCC(=O)N2CCCC2Cn2cccn2)c1 (stereo unspecified)
-11.8

Another compound: "CN(CC(N)=O)C(=O)c1cc(Cl)c(Cl)n1C"
-5.05

Another compound: "Cc1ccoc1C(=O)N1C[C@@H]2COC[C@]2(CNS(C)(=O)=O)C1"
-3.33

Another compound: CN(Cc1nccn1C)c1nccc(N2CCCC(O)C2)n1 (stereo unspecified)
2.11

Another compound: c1ccc(-n2ccc(CN3CCOC(Cn4cncn4)C3)n2)cc1 (stereo unspecified)
-8.56

Another compound: "CCOc1cccc(C(=O)N2CCN(c3nccc(OC)n3)CC2)c1"
23.4

Another compound: "Cc1ccc(C(=O)N2C[C@H](NS(C)(=O)=O)[C@@H](C(C)C)C2)cc1F"
2.48

Another compound: COc1ccc(N2CCN(C(=O)NC(C)c3nncn3C)CC2)cc1 (stereo unspecified)
-3.61

Another compound: "Cc1nc(CCN)cc(N(C)Cc2nc3ccc(F)cc3[nH]2)n1"
0.172

---

Assignment: determine reported cytotoxicity at 70.5 h for the given compounds.
experiment: Human HepG2 cell viability assay in 384 well format; format: toxicity, cell-based; design: dose 125 nL, time 70.5 hour; concentration not given beside the values; conditions: HepG2 cells, read-out: Inhibition
API: value field is a number in %; no unit string.

Given the compound OC(COc1ccccc1)CN1CCc2c(ncn2C2CC2)C1 (stereo unspecified) , what is its reported cytotoxicity at 70.5 h?
-6.53

Another compound: COCCN(Cc1c(C)nn(C)c1C)C(=O)C1COc2ccccc2C1 (stereo unspecified)
-1.84

Another compound: Cn1cccc1C(O)CNC(=O)COc1ccc(Cl)cc1Cl (stereo unspecified)
-12

Another compound: "O=C1Nc2ccccc2C12CCN(c1nccs1)CC2"
-3.17

Another compound: CCN1CC2(CC1=O)CN(C(=O)c1ccoc1)CCN(C(=O)N(C)C)C2 (stereo unspecified)
3.23

Another compound: O=C(NCc1ccc(Cl)cc1)C1CCCN(c2ccc3nncn3n2)C1 (stereo unspecified)
-9.54
